- target or system: VIM-1 (Pseudomonas aeruginosa, UniProt A0A0F7KYQ8)
- protocol description: Inhibitory activity on MBL, fluorescent substrate FC-5
- Format: biochemical
- reported conditions: read-out: Inhibitory activity on MBL VIM-1 (IC50 class)
pIC50: −log10 of the molar value.
value type: pIC50

{"compound": "O=C(O)c1c(CNc2nncs2)ccc2c1OB(O)CC2 [Comparative example 1 compound 64, reference compound]", "measured value": "4.00 to 6.00"}
{"compound": "Nc1ncc(-c2cn(Cc3ccc4c(c3C(=O)O)OB(O)CC4)nn2)cn1", "measured value": "6.00 to 8.00"}
{"compound": "N#Cc1ccn(Cc2ccc3c(c2C(=O)O)OB(O)CC3)n1", "measured value": "4.00 to 6.00"}
{"compound": "C[n+]1ccn(Cc2ccc3c(c2C(=O)O)OB(O)CC3)n1", "measured value": "4.00 to 6.00"}

Given the entry N=C(N)NCCCc1cn(Cc2ccc3c(c2C(=O)O)OB(O)CC3)nn1 , report its measured pIC50. 4.00 to 6.00

Given the entry O=C(O)c1c(Cn2cc3c(n2)CNC3)ccc2c1OB(O)CC2 [Compound 56] , report its measured pIC50. 6.00 to 8.00

Given the entry N=C(N)NCCc1cnn(Cc2ccc3c(c2C(=O)O)OB(O)CC3)c1 , report its measured pIC50. 4.00 to 6.00

###

- target or system: VIM-2 (Escherichia coli)
- protocol description: Inhibitory activity on MBL, fluorescent substrate FC-5
- Assay type: biochemical
- reported conditions: read-out: Inhibitory activity on MBL VIM-2 (IC50 class)
value type: IC50

{"molecule": "CC(N)c1cnn(Cc2ccc3c(c2C(=O)O)OB(O)CC3)c1 (centres unmarked)", "measured value": "1000 to 100000 nM"}
{"molecule": "O=C(O)c1c(Cn2cccn2)ccc2c1OB(O)CC2", "measured value": "10 to 1000 nM"}
{"molecule": "N=C(N)Nc1cnn(Cc2ccc3c(c2C(=O)O)OB(O)CC3)c1", "measured value": "10 to 1000 nM"}
{"molecule": "NCCNCc1cnn(Cc2ccc3c(c2C(=O)O)OB(O)CC3)c1", "measured value": "10 to 1000 nM"}

Moving on to the next molecule.
Given the entry O=C(O)c1c(Cn2cc(C3CNC3)nn2)ccc2c1OB(O)CC2 , report its measured IC50. 1000 to 100000 nM

###

- target or system: OXA-48 (Klebsiella pneumoniae, UniProt Q6XEC0)
- Sequence (Q6XEC0 23-265 limits assumed): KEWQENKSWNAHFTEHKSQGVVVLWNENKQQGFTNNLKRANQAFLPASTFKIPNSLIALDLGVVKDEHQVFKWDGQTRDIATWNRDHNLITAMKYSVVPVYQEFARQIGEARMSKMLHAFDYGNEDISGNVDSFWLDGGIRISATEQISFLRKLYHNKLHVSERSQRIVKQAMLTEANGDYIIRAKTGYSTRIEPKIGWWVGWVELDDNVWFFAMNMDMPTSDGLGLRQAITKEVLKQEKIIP
- protocol description: Inhibitory activity on SBL, fluorescent substrate FC-5
- Type: biochemical
- reported conditions: read-out: Inhibitory activity on SBL OXA-48 (IC50 class)
Measured IC50 by item

The following compounds have reported results that may help.
{"compound": "O=C(O)c1c(Cn2cc3c(n2)CNC3)ccc2c1OB(O)[C@@H]1C[C@H]21 [Compound 53]", "target or system": "OXA-48 (Klebsiella pneumoniae, UniProt Q6XEC0)", "IC50": "< 10 nM"}
{"compound": "O=C(O)c1c(Cn2cc(C3CNC3)nn2)ccc2c1OB(O)CC2 [Compound 47]", "target or system": "OXA-48 (Klebsiella pneumoniae, UniProt Q6XEC0)", "IC50": "10 to 1000 nM"}
{"compound": "O=C(O)c1c(CN2CC=CC2)ccc2c1OB(O)CC2 [Compound 26]", "target or system": "OXA-48 (Klebsiella pneumoniae, UniProt Q6XEC0)", "IC50": "10 to 1000 nM"}
{"compound": "Cc1nccn1Cc1ccc2c(c1C(=O)O)OB(O)CC2 [Compound 24]", "target or system": "OXA-48 (Klebsiella pneumoniae, UniProt Q6XEC0)", "IC50": "< 10 nM"}

Moving on to the next compound.
Given the entry O=C(O)c1c(Cn2ccnc2)ccc2c1OB(O)CC2 [Compound 23] , report its measured IC50. < 10 nM

###

- target or system: NDM-5 (Klebsiella pneumoniae, UniProt C7C422, M154L/V88L)
- Sequence (C7C422 29-270 V88L/M154L): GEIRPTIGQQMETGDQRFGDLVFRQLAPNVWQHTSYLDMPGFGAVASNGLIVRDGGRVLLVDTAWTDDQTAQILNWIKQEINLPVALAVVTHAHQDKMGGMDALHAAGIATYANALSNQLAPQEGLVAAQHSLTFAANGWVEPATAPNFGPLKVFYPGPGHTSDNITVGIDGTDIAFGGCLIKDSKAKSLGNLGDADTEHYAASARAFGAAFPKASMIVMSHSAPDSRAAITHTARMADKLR
- protocol description: Inhibitory activity on MBL, fluorescent substrate FC-5
- Assay type: biochemical
- reported conditions: read-out: inhibitory activity at a nanomolar-level on NDM-5
pIC50: −log10 of the molar value.
Measured pIC50 by item

The following compounds have reported results that may help.
{"compound": "N=C(N)Nc1cnn(Cc2ccc3c(c2C(=O)O)OB(O)CC3)c1", "target or system": "NDM-5 (Klebsiella pneumoniae, UniProt C7C422, M154L/V88L)", "pIC50": "> 6.00"}
{"compound": "CN1Cc2cn(Cc3ccc4c(c3C(=O)O)OB(O)CC4)nc2C1", "target or system": "NDM-5 (Klebsiella pneumoniae, UniProt C7C422, M154L/V88L)", "pIC50": "> 6.00"}
{"compound": "NCCNc1cnn(Cc2ccc3c(c2C(=O)O)OB(O)CC3)c1", "target or system": "NDM-5 (Klebsiella pneumoniae, UniProt C7C422, M154L/V88L)", "pIC50": "> 6.00"}
{"compound": "C[n+]1ccn(Cc2ccc3c(c2C(=O)O)OB(O)CC3)n1", "target or system": "NDM-5 (Klebsiella pneumoniae, UniProt C7C422, M154L/V88L)", "pIC50": "> 6.00"}
{"compound": "O=C(O)c1c(Cn2nccn2)ccc2c1OB(O)CC2", "target or system": "NDM-5 (Klebsiella pneumoniae, UniProt C7C422, M154L/V88L)", "pIC50": "> 6.00"}

Moving on to the next compound.
Given the entry NC(=O)N1Cc2cn(Cc3ccc4c(c3C(=O)O)OB(O)CC4)nc2C1 , report its measured pIC50. > 6.00

###

- target or system: VIM-1 (Pseudomonas aeruginosa)
- protocol description: Inhibitory activity on MBL, fluorescent substrate FC-5
- Assay type: biochemical
- reported conditions: unit inferred; read-out: VIM-1, number in parentheses under the class symbol
value type: pIC50
Remember, pIC50 is on a log scale: it is -log10 of the molar concentration.

Recall the recorded pIC50 for O=C(O)c1c(CNc2nncs2)ccc2c1OB(O)CC2 [Comparative example 1 compound 64, reference compound] with VIM-1 (Pseudomonas aeruginosa) and state it. 5.26

###

Measured pIC50 by item
- target or system: IMP-1 (Serratia marcescens)
- Sequence (P52699 19-246 limits assumed): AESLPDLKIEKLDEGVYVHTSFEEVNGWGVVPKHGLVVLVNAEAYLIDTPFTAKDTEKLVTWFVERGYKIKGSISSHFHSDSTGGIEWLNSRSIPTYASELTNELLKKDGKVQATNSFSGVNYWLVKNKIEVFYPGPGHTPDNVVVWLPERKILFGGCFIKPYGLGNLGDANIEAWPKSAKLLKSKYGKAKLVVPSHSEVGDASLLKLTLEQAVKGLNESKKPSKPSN
- protocol description: Inhibitory activity on MBL, fluorescent substrate FC-5
- Type: biochemical
- reported conditions: read-out: Inhibitory activity on MBL IMP-1 (IC50 class)
pIC50: −log10 of the molar value.

{"compound": "N#Cc1ccn(Cc2ccc3c(c2C(=O)O)OB(O)CC3)c1", "pIC50": "6.00 to 8.00"}

Given the entry NCc1ccn(Cc2ccc3c(c2C(=O)O)OB(O)CC3)n1 , report its measured pIC50. 4.00 to 6.00

Given the entry NC1CN(Cc2cnn(Cc3ccc4c(c3C(=O)O)OB(O)CC4)c2)C1 , report its measured pIC50. < 4.00

Given the entry NC(=O)N1Cc2cn(Cc3ccc4c(c3C(=O)O)OB(O)CC4)nc2C1 , report its measured pIC50. 6.00 to 8.00

Given the entry N#Cc1ccn(Cc2ccc3c(c2C(=O)O)OB(O)CC3)n1 , report its measured pIC50. 4.00 to 6.00

###

- target or system: UniProt:P24735
- protocol description: Inhibitory activity on SBL, fluorescent substrate FC-5
- reported conditions: read-out: Inhibitory activity on SBL AmpC (IC50 class)
pIC50: −log10 of the molar value.
value type: pIC50

{"compound": "NCCCc1cn(Cc2ccc3c(c2C(=O)O)OB(O)CC3)nn1", "pIC50": "< 4.00"}
{"compound": "O=C(O)c1c(Cn2ncc3ccccc32)ccc2c1OB(O)CC2", "pIC50": "4.00 to 6.00"}
{"compound": "NC1CCC(c2cn(Cc3ccc4c(c3C(=O)O)OB(O)CC4)nn2)CC1 (stereo not shown)", "pIC50": "< 4.00"}

Moving on to the next compound.
Given the entry O=C(O)c1c(Cn2cc(-c3ccccc3)nn2)ccc2c1OB(O)CC2 , report its measured pIC50. < 4.00

###

// each record: one item and its pIC50 for UniProt:P62593
Sequence (P62593 24-286 limits assumed): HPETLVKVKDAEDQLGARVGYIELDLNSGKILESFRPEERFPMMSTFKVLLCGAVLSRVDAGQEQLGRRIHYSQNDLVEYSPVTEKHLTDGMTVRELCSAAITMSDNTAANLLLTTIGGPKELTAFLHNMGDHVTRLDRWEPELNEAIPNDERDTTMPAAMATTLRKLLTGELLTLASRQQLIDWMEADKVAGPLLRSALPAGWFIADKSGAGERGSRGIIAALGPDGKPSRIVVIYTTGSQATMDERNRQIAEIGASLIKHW
pIC50: −log10 of the molar value.

{"molecule": "NC(=O)N1Cc2cn(Cc3ccc4c(c3C(=O)O)OB(O)CC4)nc2C1 [Compound 73]", "value type": "pIC50", "measured value": "> 8.00"}

Recall the recorded pIC50 for Nc1ccc(-c2cn(Cc3ccc4c(c3C(=O)O)OB(O)CC4)nn2)cc1 [Compound 59] with UniProt:P62593 and state it. > 8.00

Recall the recorded pIC50 for O=C(O)c1c(Cn2cc3c(n2)CNC3)ccc2c1OB(O)C=C2 [Compound 52] with UniProt:P62593 and state it. 4.00 to 6.00

###

- target or system: UniProt P52699
- protocol description: Inhibitory activity on MBL, fluorescent substrate FC-5
- Format: biochemical
- reported conditions: unit inferred; read-out: IMP-1, number in parentheses under the class symbol
value type: pIC50
Remember, pIC50 is on a log scale: it is -log10 of the molar concentration.

Recall the recorded pIC50 for O=C(O)c1c(CNc2nncs2)ccc2c1OB(O)CC2 [Comparative example 1 compound 64, reference compound] with UniProt P52699 and state it. 3.99

Attribution: patent US20250205259A1
